Reference for the values: PubChem BioAssay (NCATS)

- EXPERIMENT: NFAT Signaling Pathway (AID 444);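 further: carbachol stimulus at about its EC50 of 1 µM final; on the % scale 0 is the no-effect control and ±100 the full control effect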
- EXPERIMENTAL_CONDITIONS: Jurkat NFAT-bla M1, carbachol, beta-lactamase ratio, 5 h; at 7.69 µM (top of the series) unless noted
Results filed as inconclusive are left out. Activity calls are given as the source filed them. The call rests on the fitted dose curve; in most records, active means well fitted curve in either direction with a large enough effect (not every such curve was filed as active); inconclusive means small, poorly fitted or top-dose-only effect, or another doubt; inactive means flat fitted curve, though single readings scatter.
REPORTED_METRIC: activity change, negative = inhibition

// query activity change, negative = inhibition value for entry "Cn1c(=S)c2[nH]c(SCCN3CCCC3)nc2n(C)c1=O"
11.4% (inactive)

* * *

- MEASUREMENT_TARGET: Cytochrome P450 1A2 (Homo sapiens)
- EXPERIMENT: p450-cyp1a2 (AID 410); further: potency means the concentration at half of the fitted maximal effect
- EXPERIMENTAL_CONDITIONS: recombinant CYP1A2, luciferin-ME demethylation, luminescence; series mostly up to 11.4 µM
- Description: The P450 gene superfamily is involved in metabolism and the clearance of xenobiotics. This assay used human CYP1A2 to measure the demethylation of luciferin 6' methyl ether (Luciferin-ME; Promega-Glo) to luciferin. The luciferin is then measured by luminescence after the addition of a luciferase detection regeant. Luciferin-ME concentration in the assay was equal to its Km for CYP1A2. NCGC Assay Protocol Summary: […]
Records with an inconclusive call do not appear. Activity calls are given as the source filed them. Calls follow the shape of the full dose curve.
REPORTED_METRIC: Potency

COMPOUND: c1cc(CNCCN2CCNCC2)ccn1
Potency: inactive
//
COMPOUND: S=C(CSc1ccccc1)Nc1cccc2ccccc12
Potency: 1.26 µM (active)
//
COMPOUND: COc1ccc(Oc2ncc3nc(C)c(=O)n(-c4ccc(OC)cc4)c3n2)cc1
Potency: 15.8 µM (active)
//
COMPOUND: CC(C)[C@@H](C)/C=C\[C@@H](C)[C@@H]1CC[C@H]2C3=CC=C4C[C@@H](O)CC[C@]4(C)[C@H]3CC[C@]21C
Potency: inactive
//
COMPOUND: CC1=NN(C(=O)c2ccncc2)C(=O)[C@@H]1N=Nc1ccc2ccccc2c1
Potency: 0.158 µM (active)
//
COMPOUND: Cn1c(=O)c2[nH]c(SCCN3CCOCC3)nc2n(C)c1=S
Potency: 0.631 µM (active)
//
COMPOUND: CCCCCCCCCCCCCCC/C=C\[C@H](O)[C@@H](NC(=O)CCCCCCCCCCCCC)OC (tested in a mixture with another compound)
Potency: inactive
//
COMPOUND: O=C(O)[C@@H]1CCN(Cc2oc(CO)cc(=O)c2O)C1
Potency: 10 µM (active)
//
COMPOUND: NC(N)=NCCSSCCN=C(N)N
Potency: inactive
//
COMPOUND: Cn1c(=O)c2c(nc(NCCNc3nc4c(c(=O)n(C)c(=O)n4C)n3C)n2C)n(C)c1=O
Potency: inactive

Cytochrome P450 1A2 (Homo sapiens) / Potency / "CC(C)(CN)CN" : value?
inactive
